Test details: Biodistribution in baboon kidney medulla at 340 mg, iv after 90 mins
Assay type: ADME, organism-based
Condition parameters: papio hamadryas, read-out: Drug uptake
Measured property: concentration at 1.5 h

Recorded concentration at 1.5 h (compound `N[11C](=O)c1cnccn1` ): 229 µg/mL

* * *

Test details: Biodistribution in baboon plasma at 170 mg, iv after 15 mins
Type: ADME, organism-based
Condition parameters: papio hamadryas, read-out: Drug uptake
Measured property: concentration at 0.25 h (ng/mL)
Numbers only; they are read as ng/mL.

// concentration at 0.25 h lookup, compound = CO[C@H]1/C=C/O[C@@]2(C)Oc3c(C)c(O)c4cc(c(/C=N/N5CCN([11CH3])CC5)c(O)c4c3C2=O)NC(=O)/C(C)=C\C=C\C(C)[C@H](O)[C@@H](C)[C@@H](O)[C@@H](C)[C@H](OC(C)=O)[C@@H]1C (stereo partly specified) , result: 2810

* * *

Test details: Biodistribution in baboon lung at 340 mg, iv after 15 mins
Assay type: ADME, organism-based
Condition parameters: papio hamadryas, read-out: Drug uptake
Measured property: concentration at 0.25 h (ng/mL)
# number only, unit ng/mL dropped from output

Reported concentration at 0.25 h ( `N[11C](=O)c1cnccn1` ) = 35000

* * *

Test details: Biodistribution in baboon heart at 340 mg, iv after 90 mins
Format: ADME, organism-based
Condition parameters: papio hamadryas, read-out: Drug uptake
Measured property: concentration at 1.5 h (µg/mL)
The response must be a number in µg/mL with no trailing unit.

The molecule identified as `N[11C](=O)c1cnccn1` registered its concentration at 1.5 h at 59.5

* * *

Test details: Biodistribution in baboon lung at 340 mg, iv after 60 mins
Format: ADME, organism-based
Condition parameters: papio hamadryas, read-out: Drug uptake
Measured property: concentration at 1 h (ng/mL)
Write the number in ng/mL without appending the unit.

The measured concentration at 1 h associated with `N[11C](=O)c1cnccn1` reads 22200

* * *

Test details: Biodistribution in baboon kidney medulla at 85 mg, iv after 30 mins
Type: ADME, organism-based
Condition parameters: papio hamadryas, read-out: Drug uptake
Measured property: concentration at 0.5 h (ng/mL)
API: value field is a number in ng/mL; no unit string.

Documented concentration at 0.5 h of `NN[11C](=O)c1ccncc1` : 15400

* * *

Test details: Biodistribution in baboon kidney medulla at 85 mg, iv after 60 mins
Type: ADME, organism-based
Condition parameters: papio hamadryas, read-out: Drug uptake
Measured property: concentration at 1 h (ng/mL)
Give just the numeric value; ng/mL need not be written.

Looking up `NN[11C](=O)c1ccncc1` , I found its concentration at 1 h recorded as 16400

* * *

Test details: Biodistribution in human CSF at 8.5 mg/kg, po after 2 hrs
Type: ADME, organism-based, Cerebrospinal fluid
Set-up: dose 8.5 mg/kg, route oral
Condition parameters: read-out: Drug uptake
Measured property: concentration at 2 h (ng/mL)
Supply the numeric figure in ng/mL, leaving out any unit text.

The recorded concentration at 2 h for entry NNC(=O)c1ccncc1 [ISONIAZID] equals 1900

* * *

Test details: Biodistribution in iv dosed monkey brain after 6 hrs
Type: ADME, organism-based, Macaca mulatta
Condition parameters: rhesus monkey, read-out: Drug uptake
Measured property: concentration at 6 h (ng/g)
Quick reminder: number only, in ng/g, skip the unit.

// sample CO[C@H]1/C=C/O[C@@]2(C)Oc3c(C)c(O)c4cc(c(/C=N/N5CCN([14CH3])CC5)c(O)c4c3C2=O)NC(=O)/C(C)=C\C=C\C(C)[C@H](O)[C@@H](C)[C@@H](O)[C@@H](C)[C@H](OC(C)=O)[C@@H]1C (stereo partly specified) , its concentration at 6 h was 870
